# target system: human ether-à-go-go-related gene (hERG) potassium channel (human)
# experiment description: primary screen, population patch clamp on CHO cells stably expressing hERG; higher = less effect of the substance
# Experimental: Briefly, Chinese hamster ovary (CHO) cells stably expressing the hERG channel were dislodged from tissue culture flasks and dispensed into PPC plates. […] During the recording, background leak currents were estimated by a 100 ms step to -80 mV from an initial holding potential of -70 mV and subtracted from the subsequent current measurement. The campaign was conducted in two phases using slight differences in recording protocol. […]
The campaign covered roughly 310,000 compounds. About 14,000 (4.5%) showed an effect of 50% or more. The effect is printed as a negative number. The entries come from a sample that favours strong results as a whole.
Given measured hERG current change (%, negative = inhibition) at 10uM, output yes if it is greater than or equal to -30% and no if not.

Take a look at these entries with their results.
compound: O=C(CNC(=O)c1ccc(OC(F)F)cc1)NCC1(N2CCOCC2)CCCCC1
assigned category: no

compound: COc1ccc2nc(C)cc(N/N=C/c3cccc(OC)c3O)c2c1
assigned category: yes

compound: COc1ccc(S(=O)(=O)NCC(c2cccnc2)N2CCN(c3ccccc3)CC2)cc1C (centres unmarked)
assigned category: no

compound: CCOC(=O)C1(CCc2ccccc2)CCN(Cc2ccn[nH]2)CC1
assigned category: no

compound: CC(C)CC1NC(=O)N(Cc2nc3ccccc3s2)C1=O (centres unmarked)
assigned category: no

compound: COc1ccc(C)cc1S(=O)(=O)NCC(c1cccnc1)N1CCc2ccccc2C1 (centres unmarked)
assigned category: yes

Determine whether this compound has hERG current change (%, negative = inhibition) at 10uM no lower than -30%: `COc1cccc2c(N/N=C/c3ccco3)cc(C)nc12`
yes

// repeat for COc1ccc(C(CNC(=O)C(CCSC)NC(=O)c2ccccc2Cl)N2CCOCC2)cc1 (centres unmarked) and report
yes

====

Listed here: items and their measured hERG current change (%, negative = inhibition) at 10uM.
# target system: human ether-à-go-go-related gene (hERG) potassium channel (human, UniProt Q12809)
# Sequence (Q12809 whole entry, looked up): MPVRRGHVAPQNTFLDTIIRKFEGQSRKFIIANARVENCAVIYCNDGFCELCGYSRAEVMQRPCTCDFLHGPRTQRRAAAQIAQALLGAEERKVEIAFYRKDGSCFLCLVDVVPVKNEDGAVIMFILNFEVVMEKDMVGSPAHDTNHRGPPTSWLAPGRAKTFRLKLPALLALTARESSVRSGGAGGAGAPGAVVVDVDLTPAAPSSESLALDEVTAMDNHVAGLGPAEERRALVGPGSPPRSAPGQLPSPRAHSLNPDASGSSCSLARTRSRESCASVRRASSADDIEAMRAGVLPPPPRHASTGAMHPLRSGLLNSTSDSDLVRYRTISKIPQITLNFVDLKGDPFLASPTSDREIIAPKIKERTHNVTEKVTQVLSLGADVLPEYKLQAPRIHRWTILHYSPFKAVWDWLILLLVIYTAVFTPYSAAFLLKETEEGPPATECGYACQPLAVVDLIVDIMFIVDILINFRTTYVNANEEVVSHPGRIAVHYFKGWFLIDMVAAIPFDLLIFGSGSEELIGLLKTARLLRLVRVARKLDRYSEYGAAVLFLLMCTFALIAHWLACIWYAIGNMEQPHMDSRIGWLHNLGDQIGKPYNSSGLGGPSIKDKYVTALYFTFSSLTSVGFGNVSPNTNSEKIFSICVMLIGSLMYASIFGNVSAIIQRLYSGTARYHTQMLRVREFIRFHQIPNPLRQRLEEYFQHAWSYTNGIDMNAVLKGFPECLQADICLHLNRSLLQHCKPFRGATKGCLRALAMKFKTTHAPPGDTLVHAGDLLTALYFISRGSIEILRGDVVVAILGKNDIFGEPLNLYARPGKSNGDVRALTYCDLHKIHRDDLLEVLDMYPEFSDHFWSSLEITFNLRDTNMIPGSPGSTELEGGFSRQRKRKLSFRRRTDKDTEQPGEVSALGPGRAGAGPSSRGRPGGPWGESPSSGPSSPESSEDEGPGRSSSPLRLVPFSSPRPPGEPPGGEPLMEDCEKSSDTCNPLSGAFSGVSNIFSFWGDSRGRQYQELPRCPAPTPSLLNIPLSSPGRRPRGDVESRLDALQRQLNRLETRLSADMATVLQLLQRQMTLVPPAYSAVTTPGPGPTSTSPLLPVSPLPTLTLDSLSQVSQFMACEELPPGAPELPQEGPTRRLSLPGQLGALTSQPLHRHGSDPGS
# experiment description: primary screen, population patch clamp on CHO cells stably expressing hERG; higher = less effect of the substance
The whole screen tested about 310,000 compounds, of which about 14,000 (4.5%) showed an effect of 50% or more. The effect is printed as a negative number. This excerpt belongs to a sample that is enriched for strong results.
Answer with a number only, understood to be in %.

Fill in the blank: the reported hERG current change (%, negative = inhibition) at 10uM of O=C1NC2=C(CCc3ccccc32)C(c2ccc(Br)cc2)N1 (centres unmarked) is ____.
-56.3

Now consider `COc1ccc(NC(C)=O)cc1NC(=O)CN1CCN(CC(=O)Nc2ccccc2Cl)CC1` .
-53.3

Can you handle `O=C(CCC1CCN(C(=O)c2ccco2)CC1)NCc1ccc(F)cc1` next?
-72.6

How about `COc1ccc(C(=O)NC2CC2)cc1OC1CCN(C/C=C/c2ccccc2)CC1` ?
-79.9

Consider next the molecule CC(NC(=O)C1CCN(S(=O)(=O)c2ccc3c(c2)NC(=O)CO3)CC1)c1ccccc1 (centres unmarked) in the same way.
-7.39

====

# target system: human ether-à-go-go-related gene (hERG) potassium channel (human, UniProt Q12809)
# experiment description: primary screen, population patch clamp on CHO cells stably expressing hERG; higher = less effect of the substance
Out of some 310,000 compounds screened, about 14,000 (4.5%) showed an effect of 50% or more. Effects have a minus sign here. Many of the other results were omitted from the sample, so strong results are more common in it than they were.
I'd appreciate it if you could label each record using hERG current change (%, negative = inhibition) at 10uM and these ranges: L = under -60%, M = from -60% up to -10%, H = -10% and over

molecule: Cc1c(C)c2ccc(OC(C)C(=O)NC3CCN(Cc4ccccc4)CC3)cc2oc1=O (centres unmarked)
assigned category: M
--
molecule: O=C1C(C=NCc2ccncc2)=C(O)c2ccccc21
assigned category: H
--
molecule: Cn1cc(C(=O)c2ccc(Cl)cc2)cc1-c1nc2ccccc2n1C
assigned category: M
--
molecule: CN(CC#CCC(c1ccccc1)c1ccccc1)C(C)(C)C.Cl
assigned category: L
--
molecule: CC(Oc1ccc2ccc(=O)oc2c1)C(=O)NC1CCN(Cc2ccccc2)CC1 (centres unmarked)
assigned category: L
--
molecule: COc1ccc(CNC(=O)C[C@H]2C(=O)N(C3CCCCC3)C[C@@H]2Cc2ccccc2)cc1
assigned category: H

Dear colleague, I would appreciate it if you could identify the bin for CCOP(=O)(OCC)C(NC(=O)Nc1ccc(Cl)cc1)C(=O)N(CC)CC (centres unmarked) and reply at your convenience.
M

====

# target system: human ether-à-go-go-related gene (hERG) potassium channel (human, UniProt Q12809)
# experiment description: primary screen, population patch clamp on CHO cells stably expressing hERG; higher = less effect of the substance
Among all 310,000 compounds or so, about 14,000 (4.5%) showed an effect of 50% or more. Effects have a minus sign here. The full list was thinned out, with strong results kept by preference.
quantity name: hERG current change (%, negative = inhibition) at 10uM (%)
Numeric answer only, unit % assumed.

compound: COc1cc(/C=C/C(=O)OCC(=O)N2CCN(C(=O)c3ccco3)CC2)ccc1O
target system: human ether-à-go-go-related gene (hERG) potassium channel (human, UniProt Q12809)
u: %
value measured: 2.55
--
compound: COc1ccc(CNC(=O)CSc2nnc(C)c(=O)[nH]2)cc1
target system: human ether-à-go-go-related gene (hERG) potassium channel (human, UniProt Q12809)
u: %
value measured: 18.2
--
compound: CN(C)CCCN(C(=O)c1ccc(S(=O)(=O)N(C)C2CCCCC2)cc1)c1nc2ccc(Br)cc2s1.Cl
target system: human ether-à-go-go-related gene (hERG) potassium channel (human, UniProt Q12809)
u: %
value measured: 2.39
--
compound: Cc1ccc(C)c(N2CCN(C(=O)CCCOc3cc(=O)n(C)c4ccccc34)CC2)c1
target system: human ether-à-go-go-related gene (hERG) potassium channel (human, UniProt Q12809)
u: %
value measured: -40.8
--
compound: COc1cc(/C=C2\C(=N)N3N=C(S(C)(=O)=O)SC3=NC2=O)ccc1OS(=O)(=O)c1ccc(C)cc1
target system: human ether-à-go-go-related gene (hERG) potassium channel (human, UniProt Q12809)
u: %
value measured: 6.9
--
compound: Cc1nn(-c2ccccc2)c(C)c1/C=N/NC(=O)CSc1nnc(SCc2cccc3ccccc23)s1
target system: human ether-à-go-go-related gene (hERG) potassium channel (human, UniProt Q12809)
u: %
value measured: 6.33

So what hERG current change (%, negative = inhibition) at 10uM did `CCOC(=O)/C=C/C(=O)OCC(=O)N1CCN(C(=O)c2ccco2)CC1` get with human ether-à-go-go-related gene (hERG) potassium channel (human, UniProt Q12809)?
9.59

Consider next the compound Cc1cc(N2C(=O)C(O)=C(C(=O)c3cccs3)C2c2cccc(Br)c2)no1 (stereo not shown) in the same way.
6.05

Please give the result for `O=C(COC(=O)/C=C/c1ccc(OC(F)F)cc1)NCCN1C(=O)CSC1=O` too.
-60.8

// same read-out, input: `O=C1CCCC(O)=C1N=Nc1ccc(S(=O)(=O)N2CCOCC2)cc1`
2.06

====

# target system: human ether-à-go-go-related gene (hERG) potassium channel (human, UniProt Q12809);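 note: peak tail current of the secondary pulse compared with the same well before compound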
# experiment description: primary screen, population patch clamp on CHO cells stably expressing hERG; higher = less effect of the substance
The campaign covered roughly 310,000 compounds. About 14,000 (4.5%) showed an effect of 50% or more. The effect is printed as a negative number. The list comes from a sample in which strong results are over-represented; it also holds close analogues and randomly drawn compounds.
This section presents molecules with their documented hERG current change (%, negative = inhibition) at 10uM values.
The response must be a number in % with no trailing unit.

Here is how some molecules turned out for hERG current change (%, negative = inhibition) at 10uM.
molecule: CCOC(=O)N1CCC(NC(=O)CC(NS(=O)(=O)c2ccc(C)cc2)c2ccco2)CC1 (centres unmarked)
value measured: -7.75

molecule: CCc1nc(C)ccc1OCC(=O)NCCCN(C)C.O=C(O)C(=O)O
value measured: 4.48

molecule: OC1CCCN(Cc2nc(Cc3ccccc3Cl)no2)C1 (centres unmarked)
value measured: 9.94

molecule: COc1ccc(CCNC(=S)NC2CCN(Cc3ccccc3)CC2)cc1OC
value measured: -39.1

Kindly consider the entry below.
For human ether-à-go-go-related gene (hERG) potassium channel (human, UniProt Q12809), provide hERG current change (%, negative = inhibition) at 10uM of `Cc1ccc(OCC(=O)O/N=C(\N)c2ccccn2)cc1C` please.
-11.3

====

hERG current change (%, negative = inhibition) at 10uM values, listed per item
# target system: human ether-à-go-go-related gene (hERG) potassium channel (human, UniProt Q12809);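 note: peak tail current of the secondary pulse compared with the same well before compound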
# experiment description: primary screen, population patch clamp on CHO cells stably expressing hERG; higher = less effect of the substance
Screen size: about 310,000 compounds; about 14,000 (4.5%) showed an effect of 50% or more. The effect is printed as a negative number. The entries come from a sample that favours strong results as a whole.

Past entries and their recorded results:
molecule: COc1ccc(CCNC(=O)NC2CCCCC2)cc1
target system: human ether-à-go-go-related gene (hERG) potassium channel (human, UniProt Q12809);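 note: peak tail current of the secondary pulse compared with the same well before compound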
value measured: 0.125%

molecule: COCc1ccc(C(=O)N2CCCC(C(=O)c3ccc(SC)cc3)C2)o1 (centres unmarked)
target system: human ether-à-go-go-related gene (hERG) potassium channel (human, UniProt Q12809);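 note: peak tail current of the secondary pulse compared with the same well before compound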
value measured: -41.6%

Could you share which hERG current change (%, negative = inhibition) at 10uM value was measured for `CCCN(CCO)Cc1cccc(Br)c1` ?
-0.752%

Can you check `COc1cc(-c2noc(CCCC(=O)NCc3ccco3)n2)cc(OC)c1OC` next?
-12.1%

One more molecule: `COc1ccc(CNC(=O)NC2CCCCC2)cc1`
2.13%

Also Cc1cc(C)n(CC(O)Cn2c3ccc(Br)cc3c3cc(Br)ccc32)c(=O)n1 (centres unmarked) ?
19.5%

Consider next the molecule `CCn1ccnc1CN(C)C(=O)CCc1nnc(CCCc2ccccc2)o1` in the same way.
-7.7%

Similarly, `O=C1/C(=C/c2ccccc2Cl)N2CCC1CC2` ?
-14.1%

Again, but for CC(C)C(OC(=O)c1nsc(Cl)c1Cl)C(=O)NC1CCCCC1 (centres unmarked)
-17.7%

Same question for `C=CCn1c(-c2cccc(OC)c2OC)n[nH]c1=S` please.
-24.3%

Consider next the molecule CC(OC(=O)c1snc(C(=O)NC2CCCCC2)c1N)C(=O)NC1CCCCC1 (centres unmarked) in the same way.
-3.99%

Let us now turn to `O=C(CSc1nc2ncc(Cl)cc2[nH]1)Nc1cccc(F)c1`
12.8%

Now give it for COc1ccc(S(=O)(=O)N2CCOC2CNC(=O)C(=O)NCc2ccncc2)cc1OC (centres unmarked) too.
10.3%

Also need `Oc1ccccc1/C=N/Nc1nccnc1Cl` , thanks.
-0.0796%

Repeat with `Cl.c1ccc(CCN=C2CCCc3c2[nH]c2ccccc32)cc1`
-73.2%

Also need `Cc1ccc2cc(CCNC(=O)c3ccc4c(c3)OCO4)c(=O)[nH]c2c1C` , thanks.
4.17%

Now the molecule `C=CCn1c(O)c(C(C)=Nc2cccc(C(=O)O)c2)c(=O)[nH]c1=O`
1.4%

Next molecule up: `OCCN=C1CCCc2c1[nH]c1ccc(Cl)cc21`
-18%

And what about the molecule `O=C(NCC1CC1)Nc1ccccc1F` ?
18.8%

What do we get for Cc1ccc(S(=O)(=O)N2CCCCC2CCNC(=O)C(=O)NCCc2ccco2)cc1 (centres unmarked) ?
-33.1%
